target: D(2) dopamine receptor (Sus scrofa); assay: The compound was evaluated for the binding affinity towards Dopamine receptor D2 at high affinity state.
pKi: −log10 of the molar value.

- molecule: "Oc1cc2c(c(Br)c1O)CCNCC2c1ccccc1 (stereo unspecified)"
  pKi: 7.41

* * *

# maps each entry to its Ki
biological target: D(1A) dopamine receptor (Canis familiaris); test: The compound was evaluated for the dissociation constant for inhibiting the binding of [3H]-SCH- 23390 at dopamine receptor D1
metric: Ki (nM)

- molecule: "CN1CCc2c(cc(O)c(O)c2Cl)C(c2ccccc2)C1 (configuration not stated)"
  metric: "Ki"
  measuredNumber: 0.9
- molecule: "CN1CCc2c(cc(O)c(O)c2Br)C(c2ccccc2)C1 (configuration not stated)"
  metric: "Ki"
  measuredNumber: 1.2
